# target-system: T1, Chryseobacterium sp-62563 deamidase polypeptide (second polypeptide, deamidase domain), wildtype (Chryseobacterium sp-62563)
# T1 sequence: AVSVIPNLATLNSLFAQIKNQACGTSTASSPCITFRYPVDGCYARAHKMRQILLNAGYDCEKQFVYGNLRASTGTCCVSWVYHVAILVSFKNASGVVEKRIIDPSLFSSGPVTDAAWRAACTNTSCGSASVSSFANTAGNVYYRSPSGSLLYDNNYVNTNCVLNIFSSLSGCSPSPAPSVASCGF
# method-summary: cell-based or functional assay
Below, each entry is listed with its recorded Relative activity of maturated deamidase (% initial rate).

Worked examples, 5 binders total:
{"columns": ["binder", "result"],
 "data": [
  ["Chryseobacterium sp-62563 propeptide M39N (protein) NQDPNLVAKESNETAMKDFGKTVPVGIEKEDGKFKISFNVTAQPYEIKDSKENAAYISMIKTAVENETPIHVFLKANTNEIAKVDKATDDDIRYFKSVFTKEVKEENRK", 39],
  ["Chryseobacterium sp-62563 propeptide Y94I (protein) NQDPNLVAKESNETAMKDFGKTVPVGIEKEDGKFKISFMVTAQPYEIKDSKENAAYISMIKTAVENETPIHVFLKANTNEIAKVDKATDDDIRIFKSVFTKEVKEENRK", 60],
  ["Chryseobacterium sp-62563 propeptide M39G (protein) NQDPNLVAKESNETAMKDFGKTVPVGIEKEDGKFKISFGVTAQPYEIKDSKENAAYISMIKTAVENETPIHVFLKANTNEIAKVDKATDDDIRYFKSVFTKEVKEENRK", "> 100"],
  ["Chryseobacterium sp-62563 propeptide K101L (protein) NQDPNLVAKESNETAMKDFGKTVPVGIEKEDGKFKISFMVTAQPYEIKDSKENAAYISMIKTAVENETPIHVFLKANTNEIAKVDKATDDDIRYFKSVFTLEVKEENRK", 41],
  ["Chryseobacterium sp-62563 propeptide F38D (protein) NQDPNLVAKESNETAMKDFGKTVPVGIEKEDGKFKISDMVTAQPYEIKDSKENAAYISMIKTAVENETPIHVFLKANTNEIAKVDKATDDDIRYFKSVFTKEVKEENRK", "> 100"]
]}

Prompt: // Relative activity of maturated deamidase (% initial rate) lookup, key: Chryseobacterium sp-62563 propeptide I92L (protein) NQDPNLVAKESNETAMKDFGKTVPVGIEKEDGKFKISFMVTAQPYEIKDSKENAAYISMIKTAVENETPIHVFLKANTNEIAKVDKATDDDLRYFKSVFTKEVKEENRK
Response: 31

Prompt: // Relative activity of maturated deamidase (% initial rate) lookup, key: Chryseobacterium sp-62563 propeptide K96I (protein) NQDPNLVAKESNETAMKDFGKTVPVGIEKEDGKFKISFMVTAQPYEIKDSKENAAYISMIKTAVENETPIHVFLKANTNEIAKVDKATDDDIRYFISVFTKEVKEENRK
Response: 71

Prompt: // Relative activity of maturated deamidase (% initial rate) lookup, key: Chryseobacterium sp-62563 propeptide P69D (protein) NQDPNLVAKESNETAMKDFGKTVPVGIEKEDGKFKISFMVTAQPYEIKDSKENAAYISMIKTAVENETDIHVFLKANTNEIAKVDKATDDDIRYFKSVFTKEVKEENRK
Response: 82
